# System: SW480
# method_notes: TCF/Wnt firefly luciferase reporter signal relative to plate median (fraction of plate median); higher = higher Wnt reporter signal
# measurement_conditions: 5 µM; treatment time 24 h; reporter: 7TFP
The compounds listed here are annotated with their TCF/Wnt firefly luciferase reporter signal.
reported_endpoint: TCF/Wnt firefly luciferase reporter signal

>>> endpoint_value("CCN(CCO)CCCC(C)Nc1ccnc2cc(Cl)ccc12 (configuration not stated)")
1.04
>>> endpoint_value("CO/N=C(\\C(=O)N[C@@H]1C(=O)N2C(C(=O)O)=C(COC(C)=O)CS[C@H]12)c1csc(N)n1")
0.856
>>> endpoint_value("COc1ccc2c(c1)OC/C(=C\\c1ccc(OC)c(O)c1)C2=O")
0.98
>>> endpoint_value("CCC1(c2ccccc2)C(=O)NCNC1=O")
1.06
>>> endpoint_value("CC(C)[C@@H]1CC[C@@H](C)CC1=O")
0.904
>>> endpoint_value("COc1cc(O)c2c(=O)c(O)c(-c3ccc(O)c(O)c3)oc2c1")
1.04
>>> endpoint_value("O=C(O)c1cc(O)c(O)c(O)c1")
1.03
>>> endpoint_value("C=CCCCCCCCCCCCC(O)CC(O)COC(C)=O (configuration not stated)")
0.962
>>> endpoint_value("Oc1cc(O)c2c(c1)O[C@H](c1cc(O)c(O)c(O)c1)[C@H](O)C2")
1.07
>>> endpoint_value("CCOC(=O)c1ncn2c1CN(C)C(=O)c1cc(F)ccc1-2")
0.993
>>> endpoint_value("CC(COc1ccccc1)NC(C)C(O)c1ccc(O)cc1 (configuration not stated)")
1.01
>>> endpoint_value("O=C1c2ccccc2C(=O)c2c(O)c(O)cc(O)c21")
0.873

* * *

// reported cell viability per item
# System: SW480
# method_notes: cell viability (CellTiter-Glo) relative to plate median (fraction of plate median); higher = more viable cells
# measurement_conditions: 5 µM; treatment time 24 h; reporter: 7TFP
reported_endpoint: cell viability

>>> endpoint_value("CCN(CC)CCNC(=O)c1cc(Cl)c(N)cc1OC")
0.993
>>> endpoint_value("CC1(C)O[C@@H]2C[C@H]3[C@@H]4CCC5=CC(=O)CC[C@]5(C)[C@@]4(F)[C@@H](O)C[C@]3(C)[C@]2(C(=O)CCl)O1")
0.977
>>> endpoint_value("C=C1C(=O)O[C@H]2C[C@@H]1C(OC(C)=O)C/C(C)=C/CC/C(C)=C/CC[C@@]2(C)O (stereo not given in full)")
1.06
>>> endpoint_value("Clc1cccc(Cl)c1NC1=NCCN1")
0.988
>>> endpoint_value("COc1cc(OC)c2c(=O)c(-c3ccccc3)c(C)oc2c1OC")
1.01
>>> endpoint_value("NC(=O)c1cc[n+](CC2=C(C(=O)O)N3C(=O)[C@@H](NC(=O)[C@@H](c4ccccc4)S(=O)(=O)[O-])[C@H]3SC2)cc1")
1.07
>>> endpoint_value("C=CCCCCCCCCCCCC(O)CC(O)CO (stereo not given)")
1.05
>>> endpoint_value("CCCn1c(=O)c2[nH]c(C3CCCC3)nc2n(CCC)c1=O")
1.02
>>> endpoint_value("CO[C@@]1(NC(=O)Cc2cccs2)C(=O)N2C(C(=O)O)=C(COC(N)=O)CS[C@@H]21")
0.968
>>> endpoint_value("N[C@H]1Cc2ccc(cc2)C(=O)[C@@H]2C[C@@H](O)CN2C1=O [cyclo(4-hydroxyprolyl-phenylalanyl)]")
0.956
>>> endpoint_value("CCn1cc(C(=O)O)c(=O)c2cnc(N3CCNCC3)nc21")
1
>>> endpoint_value("O=C1OC(=O)[C@H]2[C@@H]1[C@@H]1CC[C@H]2O1")
0.949
>>> endpoint_value("CC(NCCC(c1ccccc1)c1ccccc1)c1ccccc1 (stereo not given)")
1
>>> endpoint_value("CCCc1nc(C(C)(C)O)c(C(=O)OCc2oc(=O)oc2C)n1Cc1ccc(-c2ccccc2-c2nnn[nH]2)cc1")
1.01
>>> endpoint_value("COc1ccc(C(=O)/C=C/c2ccccc2)cc1")
0.972
>>> endpoint_value("C#C[C@]1(O)CC[C@H]2[C@@H]3CCC4=CC(=O)CC[C@@H]4[C@H]3CC[C@@]21C")
1.04
>>> endpoint_value("Nc1nc2c(ncn2COCCO)c(=O)[nH]1")
0.955
>>> endpoint_value("CCC1(c2ccccc2)C(=O)NCNC1=O")
1
>>> endpoint_value("Cn1c(=O)c2c(ncn2C)n(C)c1=O")
0.952
>>> endpoint_value("Cc1ccc(C(=O)Nc2ccc(S(=O)(=O)O)c3cc(S(=O)(=O)O)cc(S(=O)(=O)O)c23)cc1NC(=O)c1cccc(NC(=O)Nc2cccc(C(=O)Nc3cc(C(=O)Nc4ccc(S(=O)(=O)O)c5cc(S(=O)(=O)O)cc(S(=O)(=O)O)c45)ccc3C)c2)c1")
1.04

* * *

# Tested on: SW480
# method_notes: TCF/Wnt firefly luciferase reporter signal relative to plate median (fraction of plate median); higher = higher Wnt reporter signal
# measurement_conditions: 5 µM; treatment time 24 h; reporter: 7TFP
Please mark Met if the recorded TCF/Wnt firefly luciferase reporter signal is equal to or greater than 0.9, and Not met if it falls below.

>>> group("COc1cc([C@@H]2c3cc4c(cc3[C@@H](O[C@@H]3O[C@@H]5CO[C@@H](c6cccs6)O[C@H]5[C@H](O)[C@H]3O)[C@H]3COC(=O)[C@H]23)OCO4)cc(OC)c1O")
"Not met"
>>> group("O=C1[C@@H]2CCCN2C(=O)[C@@H]2CCCN12")
"Met"
>>> group("CCOC(=O)[C@H](CCc1ccccc1)N[C@@H](C)C(=O)N1CCC[C@H]1C(=O)O")
"Met"
>>> group("CCn1cc(C(=O)O)c(=O)c2cc(F)c(N3CCN(C)CC3)cc21")
"Met"
>>> group("Cc1cccc(CN2CCN(C(c3ccccc3)c3ccc(Cl)cc3)CC2)c1 (configuration not stated)")
"Met"
>>> group("COC(=O)[C@H]1[C@H]2C[C@@H]3c4[nH]c5cc(OC)ccc5c4CCN3C[C@H]2C[C@@H](OC(=O)c2cc(OC)c(OC)c(OC)c2)[C@@H]1OC")
"Met"
>>> group("CC(=O)O[C@H]1C[C@@]2(C)[C@H](c3ccoc3)OC(=O)[C@H]3O[C@]32[C@@]2(C)C1[C@]1(C)C(C[C@H]2OC(C)=O)C(C)(C)[C@H](OC(C)=O)C[C@@H]1OC(C)=O (some centres not stated)")
"Met"
>>> group("CN1CCN(CC(=O)N2c3ccccc3C(=O)Nc3cccnc32)CC1")
"Not met"
>>> group("CC(=O)Oc1cc(-c2coc3cc(OC(C)=O)c(OC(C)=O)c(OC(C)=O)c3c2=O)cc(OC(C)=O)c1OC(C)=O")
"Met"
>>> group("CS(=O)(=O)CCCCN=C=S")
"Not met"
>>> group("NC[C@H]1O[C@H](O[C@H]2[C@H](O[C@@H]3O[C@H](CO)[C@@H](O)[C@H]3O)[C@@H](O)[C@H](N)C[C@@H]2N)[C@H](N)[C@@H](O)[C@@H]1O")
"Met"
>>> group("OC(Cn1cncn1)(Cn1cncn1)c1ccc(F)cc1F")
"Met"
>>> group("CN(C)CCCO[C@@H]1[C@H]2OC(C)(C)O[C@H]2O[C@@H]1[C@H](O)CO")
"Met"
>>> group("CN[C@@H]1[C@H](O[C@H]2[C@H](O[C@H]3[C@H](O)[C@@H](O)[C@H](N=C(N)N)[C@@H](O)[C@@H]3N=C(N)N)O[C@@H](C)[C@]2(O)C=O)O[C@@H](CO)[C@H](O)[C@H]1O")
"Met"
>>> group("CCCCCC1C(=O)CCC1CC(=O)OC (configuration not stated)")
"Met"
>>> group("Cc1ccc2c(c1)CC[C@H]1CC(=O)CC[C@]21C")
"Met"

* * *

In this section, each of the compounds is paired with its reported cell viability.
# System: HCT116
# method_notes: cell viability (CellTiter-Glo) relative to plate median (fraction of plate median); higher = more viable cells
# measurement_conditions: 5 µM; treatment time 24 h; reporter: TCF4/Wnt
reported_endpoint: cell viability

>>> endpoint_value("Clc1ccc(COC(Cn2ccnc2)c2ccc(Cl)cc2Cl)cc1 (configuration not stated)")
0.972
>>> endpoint_value("OCCN(CCO)c1nc(N2CCCCC2)c2nc(N(CCO)CCO)nc(N3CCCCC3)c2n1")
0.991
>>> endpoint_value("COc1cccc(OC)c1C(=O)N[C@@H]1C(=O)N2[C@@H]1SC(C)(C)[C@@H]2C(=O)O")
1.17
>>> endpoint_value("CC(=O)O[C@@H]1C[C@@]2(C)C(CC[C@@H]2C(C)=O)C2CCC3=CC(=O)CC[C@]3(C)C21 (some centres not stated)")
1.09
>>> endpoint_value("O=c1cc(-c2ccc(O)cc2)oc2cc(O[C@@H]3O[C@H](CO)[C@@H](O)[C@H](O)[C@H]3O[C@@H]3OC[C@](O)(CO)[C@H]3O)cc(O)c12")
1.04
>>> endpoint_value("C=C(C)[C@@H]1CC[C@]2(CO)CC[C@]3(C)[C@H](CC[C@@H]4[C@@]5(C)CC[C@H](O)C(C)(C)[C@@H]5CC[C@]43C)[C@@H]12")
0.973
>>> endpoint_value("CCCCCCCCCc1ccc(OCCOCCOCCOCCOCCOCCOCCOCCOCCO)cc1")
0.947
>>> endpoint_value("CC1(C)S[C@@H]2[C@H](NC(=O)C(C(=O)O)c3ccccc3)C(=O)N2[C@H]1C(=O)O (some centres not stated)")
0.934
>>> endpoint_value("CC1NC(=O)CNC1=O (configuration not stated)")
0.918
>>> endpoint_value("CC(=O)O[C@@H]1CC2C(C)(C)C(=O)CC[C@]2(C)C2CC[C@]3(C)C(=CC(=O)O[C@H]3c3ccoc3)[C@@]21C (some centres not stated)")
1.06
>>> endpoint_value("COc1ccc2c(c1)OC1(O)COc3cc(OC)c(OC)cc3C1=C2 (configuration not stated)")
1.05
>>> endpoint_value("C=C1[C@H]2CC[C@@]3(C)[C@H](c4ccoc4)OC(=O)C[C@]13O[C@H]1C[C@H](O)C(C)(C)[C@H](CC(=O)OC)[C@]12C [3-DEOXY-3beta-HYDROXYANGOLENSIC ACID METHYL ESTER]")
0.958
>>> endpoint_value("C=C1CCC2C(CC2(C)C)C(=O)CCC1O (configuration not stated)")
0.962
>>> endpoint_value("CCCCCCCCCCCCCCC(C(=O)O)C(O)(CC(=O)OC)C(=O)O (configuration not stated)")
0.878
>>> endpoint_value("CC(=O)OCC(=O)[C@@]1(O)CC[C@H]2[C@@H]3CCC4=CC(=O)CC[C@]4(C)[C@H]3C(=O)C[C@@]21C")
1
>>> endpoint_value("COc1cccc2c1C(=O)c1c(O)c3c(c(O)c1C2=O)C[C@@](O)(C(=O)CO)C[C@@H]3O[C@H]1C[C@H](N)[C@@H](O)[C@H](C)O1")
0.589
>>> endpoint_value("C[C@@H]([C@H]1OC(C)(C)[C@@H](O)[C@H]1O)[C@@H]1CC[C@]2(C)C3=CC[C@H]4C(C)(C)C(=O)CC[C@]4(C)[C@H]3CC[C@@]12C")
0.998

All values here come from the supplement of paper PMC6522484.
